Target or system Cytochrome P450 2C9 (Homo sapiens, UniProt P11712); metric IC50; compiled from varied reports.

Look over these answered cases.
- smiles code: "CCC[C@@H](CCO)Nc1nc(N)nc2cnn(Cc3ncc(C4CCNCC4)cc3OC)c12"
  IC50: "> 20 µM"
- smiles code: "COc1ccc2c(Oc3ccc(CP(=O)(OCOC(=O)C(C)(C)C)OCOC(=O)C(C)(C)C)cc3)ccnc2n1"
  IC50: "> 50 µM"
- smiles code: "Cc1cc(C)c(-c2ncc3c(cc(CN4CC[C@H](N)C4)n3C(C)C)c2-c2ccc(C#N)c(F)c2)cc1C"
  IC50: "32.9 µM"

GET /values?item= "CCCCNc1nc(N)nc2cnn(Cc3ncc(C4CCNCC4)cc3OC)c12" &system= Cytochrome P450 2C9 (Homo sapiens, UniProt P11712) returns IC50: > 20 µM

GET /values?item= "O=C(O)c1ccc2nc(CN3CCC(c4cccc(OCc5ccc(C6COC6)cc5F)n4)CC3)n(C[C@@H]3CCO3)c2c1" &system= Cytochrome P450 2C9 (Homo sapiens, UniProt P11712) returns IC50: > 10 µM

GET /values?item= "CCC[C@@H](CCO)Nc1nc(N)nc2cnn(Cc3ncc(C4CCC5(CC4)CN(C4CCOCC4)C5)cc3OC)c12" &system= Cytochrome P450 2C9 (Homo sapiens, UniProt P11712) returns IC50: > 20 µM

GET /values?item= "[2H]C([2H])([2H])C1(C([2H])([2H])[2H])Cn2nc(-c3ccc(F)cn3)c(-c3ccnc4[nH]ncc34)c2CO1" &system= Cytochrome P450 2C9 (Homo sapiens, UniProt P11712) returns IC50: > 20 µM

GET /values?item= "C#CC1(N(COP(=O)([O-])[O-])C(=O)C(=O)c2c(C)c(C(=O)Nc3ccc(F)c(C#N)c3)n(C)c2C)COC1.[Na+].[Na+]" &system= Cytochrome P450 2C9 (Homo sapiens, UniProt P11712) returns IC50: > 100 µM
